These data points were gathered from patent US7056679.

target desc: T1, lactate dehydrogenase (LDH)
T1 construct: Coated at 500 ng/well as non-specific target; also called LDH polypeptide
protocol details: phage ELISA
result type: LDH (OD)
Enter your answer as a number in OD; do not include the unit.

[[record]]
binder = "GGGRESWGGGWFMGWGSGAGAAAGAPVPYPDPLEPRP [DGI-2-20R-3-A6]"
result = 1

[[record]]
binder = "MGADTCMGGKMPFDQMFGAVAAAGAPVPYPDPLEPRP [DGI-2-20F-PP-E10]"
result = 1.2

[[record]]
binder = "RERWGTAWNLWTEGVVDVRPAAAGAPVPYPDPLEPRP [DGI-2-20F-3-B5]"
result = 0.9

[[record]]
binder = "VVGYAQGDGLEGGLGSSRDGSAAAGAPVPYPDPLEPRP [DGI-2-20F-PP-D8]"
result = 1.1

[[record]]
binder = "GGDLGEQGVQLCPDVVRGGSLAAAGAPVPYPDPLEPRP [DGI-2-20F-PP-A7]"
result = 0.9

[[record]]
binder = "WWERFVWGRPVDDGVVVMATAAAGAPVPYPDPLEPRP [DGI-2-20R-3-B1]"
result = 1

[[record]]
binder = "FGSTAYADMLSQFRKFAMNISAAAGAPVPYPDPLEPRP [DGI-2-20F-PP-E1]"
result = 1


Would you kindly look at the next entry?
What does the record list as LDH (OD) for DGRGWGAMWMRWAEGLGADIAAAGAPVPYPDPLEPRP [DGI-2-20R-4-G114] ?
1.2
